Assayed System: Plasmin (PL) (Sus scrofa)
Sequence (P06867 97-809): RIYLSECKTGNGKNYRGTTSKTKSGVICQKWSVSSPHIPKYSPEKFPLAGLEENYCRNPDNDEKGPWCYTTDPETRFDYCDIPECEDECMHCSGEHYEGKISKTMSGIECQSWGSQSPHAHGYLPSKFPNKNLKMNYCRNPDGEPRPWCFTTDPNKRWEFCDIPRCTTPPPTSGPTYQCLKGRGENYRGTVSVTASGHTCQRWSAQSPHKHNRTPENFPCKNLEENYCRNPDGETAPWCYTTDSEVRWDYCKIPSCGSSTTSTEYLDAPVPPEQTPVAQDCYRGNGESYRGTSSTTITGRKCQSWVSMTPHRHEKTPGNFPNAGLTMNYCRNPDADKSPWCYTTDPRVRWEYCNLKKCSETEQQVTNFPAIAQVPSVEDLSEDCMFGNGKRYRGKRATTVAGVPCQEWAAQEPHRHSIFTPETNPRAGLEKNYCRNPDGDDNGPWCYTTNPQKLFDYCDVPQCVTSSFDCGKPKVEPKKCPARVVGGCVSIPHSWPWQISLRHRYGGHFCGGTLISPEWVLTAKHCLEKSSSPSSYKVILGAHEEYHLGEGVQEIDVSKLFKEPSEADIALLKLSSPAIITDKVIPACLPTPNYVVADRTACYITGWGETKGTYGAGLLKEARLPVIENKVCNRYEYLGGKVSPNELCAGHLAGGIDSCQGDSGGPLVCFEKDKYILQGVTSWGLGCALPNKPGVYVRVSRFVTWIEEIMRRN
Format: biochemical, Pig
Condition Context: TABLE 3, PNA substrates; So = 0.54 mmole/l; pH 7.4; 37° C., 10 minutes; 0.32 CU/ml
Where a SMILES comes first, the peptide text is derived from it. [ ]: non-standard residue; d: D form. The star is where a group is joined. pNA = O=[N+]([O-])c1ccc(N*)cc1; Tos = Cc1ccc(S(=O)(=O)*)cc1
Experimental Endpoint: Selectivity PL, absorbance (O.D.) at 405 nm
Give the value; after it, write the unit.

*Q* Supply measured Selectivity PL, absorbance (O.D.) at 405 nm of Cc1ccc(S(=O)(=O)NCCCC[C@@H](N)C(=O)N[C@@H](CC(C)C)C(=O)N[C@@H](CCCCN)C(=O)Nc2ccc([N+](=O)[O-])cc2)cc1 [NPN-1, HD-Lys(Tos)LeuLysPNA.2HBr] (H-[dK](Tos)-Leu-Lys-pNA) in your reply.
*A* 0.457 O.D.

Next:
*Q* Item `Cc1ccc(CCNC(=O)CC[C@@H](N)C(=O)N[C@@H](Cc2ccccc2)C(=O)N[C@@H](CCCCN)C(=O)Nc2ccc([N+](=O)[O-])cc2)cc1` : provide Selectivity PL, absorbance (O.D.) at 405 nm
*A* 0.427 O.D.

*Q* Using the record for Cc1ccc(S(=O)(=O)NCCCC[C@@H](N)C(=O)N[C@@H](Cc2ccccc2)C(=O)N[C@@H](CCCCN)C(=O)Nc2ccc([N+](=O)[O-])cc2)cc1 [NPN-2, H-D-Lys(ToS)-Phe-Lys PNA.2HBr] (H-[dK](Tos)-Phe-Lys-pNA) , state its measured Selectivity PL, absorbance (O.D.) at 405 nm.
*A* 0.383 O.D.

*Q* Give Selectivity PL, absorbance (O.D.) at 405 nm for NCCCC[C@H](NC(=O)[C@H](Cc1ccccc1)NC(=O)[C@H](N)CCC(=O)NCCc1ccccc1)C(=O)Nc1ccc([N+](=O)[O-])cc1 [NPN-4] (HELM PEPTIDE1{[dE].F.K.[O=[N+]([O-])c1ccc(N[*:1])cc1]}|CHEM1{[c1ccc(CCN[*:1])cc1]}$PEPTIDE1,CHEM1,1:R3-1:R1$$$V2.0)
*A* 0.330 O.D.
